Assay: chemical genetic growth profiling, strain panel (AID 1159580);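 further: tested at 20 µM; growth read once vehicle control cultures reached saturation at 30 °C; 1 = growth at the plate median or of vehicle wells; lower values mean less growth of the strain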
Conditions: S. cerevisiae deletion strains, growth OD, locus YDL035C, strain GPR1, active compounds read low
Among all 5,500 compounds or so, about 2,000 (36%) were called active. About 18% were inconclusive and are not listed. Some of the results follow.
// boundary case: normalized growth equal to 1 maps to rule not met; strictly smaller maps to rule met

O=C1c2ccccc2C(=O)c2ccccc21 | rule met

Please examine the following record next.
Input line: is_below(normalized growth, 1) for `COC(=O)c1cc(OC)c(=O)c2c(OC)c(OC)ccc2c1` ?
Output line: rule not met

* * *

Test: chemical genetic growth profiling, strain panel (AID 1159580)
Conditions: S. cerevisiae deletion strains, growth OD, locus YHR129C, strain ARP1, active compounds read low
The whole screen tested about 5,500 compounds, of which about 2,000 (36%) were called active. About 18% were inconclusive and are not listed. Some of the results follow.
QUANTITY: normalized growth

O=C1c2cccc(O)c2C(=O)c2c(O)cccc21 | 0.777 (active)
O=C(O)c1cc(O)c2c(c1)C(=O)c1cc(O)cc(O)c1C2=O | 0.957 (inactive)
COc1ccc(-c2c(O)c3c(OC)c4c(cc3oc2=O)OC(C)(C)C=C4)cc1 | 0.972 (inactive)

Proceed to the following item.
Per the record, `CC[C@H]1OC(=O)[C@H](C)[C@@H](O[C@H]2C[C@@](C)(OC)[C@@H](O)[C@H](C)O2)[C@H](C)[C@@H](O[C@@H]2O[C@H](C)C[C@H](N(C)C)[C@H]2O)[C@](C)(O)C[C@@H](C)/C(=N/OCOCCOC)[C@H](C)[C@@H](O)[C@]1(C)O` has normalized growth of 1.01 (inactive)

* * *

Experiment: chemical genetic growth profiling, strain panel (AID 1159580)
Settings: S. cerevisiae deletion strains, growth OD, locus YLR058C, strain SHM2 (second series), active compounds read low
Hit rate of the full screen: of about 5,500 compounds, about 2,000 (36%) were called active. Inconclusive results (about 18%) are left out. Some of the results follow.
Catalogue of molecules with associated normalized growth

Per the record, `C/C(=N/O)c1ccn(S(=O)(=O)c2ccc(Cl)cc2)c1` has normalized growth of 0.978 (inactive)

Per the record, `CC(=O)OCCCCN1C(=O)c2ccccc2C1=O` has normalized growth of 0.994 (inactive)

Per the record, `COc1ccccc1NC(=S)NCCc1ccc(OC)c(OC)c1` has normalized growth of 0.99 (inactive)

Per the record, `COc1ccccc1N1CC(C)(C)C(=O)N(C(=O)c2c(F)cccc2Cl)C1=S` has normalized growth of 0.995 (inactive)

Per the record, `O=[N+]([O-])c1cc(C(F)(F)F)ccc1Oc1cc(C(F)(F)F)cc(C(F)(F)F)c1` has normalized growth of 0.982 (inactive)

* * *

Experiment: chemical genetic growth profiling, strain panel (AID 1159580)
Settings: S. cerevisiae deletion strains, growth OD, locus YKR001C, strain vps1, active compounds read low
Out of some 5,500 compounds screened, about 2,000 (36%) were called active. Inconclusive results (about 18%) are left out. Some of the results follow.
// boundary case: normalized growth equal to 1 maps to false (0); strictly smaller maps to true (1)

Use the examples below as a reference point.
C[N+]12CCC(CC1)C(OC(=O)C(O)(c1ccccc1)c1ccccc1)C2 (stereo not drawn) | true (1)
C[C@H]1C(=O)CCC2[C@]3(C)CC[C@@]4(C)C5CC(C)(C)CC[C@]5(C)CC[C@]4(C)C3CC[C@@]21C (stereo partly drawn) | true (1)
O=c1c(O)c(-c2ccccc2)oc2cc(O)ccc12 | true (1)
C=C(C)C1Cc2c(ccc(C(=O)O)c2O)O1 (stereo not drawn) | true (1)
COc1cc(OC)c2c(OC)c(-c3ccc4c(c3)OCO4)c(=O)oc2c1 | true (1)
CC1(C)CC23C(=O)CCC(O)C2(C)CCC13 (stereo not drawn) | false (0)
OC[C@H]1O[C@@H](Oc2ccc(O)cc2)[C@H](O)[C@@H](O)[C@@H]1O | false (0)
O=C(/C=C/c1ccc(O)cc1)c1ccc(O)cc1O | true (1)
CC(C)c1cc2c(c(O)c1O)[C@@]1(C(=O)O)CCCC(C)(C)C1CC2 (stereo partly drawn) | true (1)
Cc1cc(O)c2c(c1)C(=O)c1cc(O)cc(O)c1C2=O | true (1)

Please examine the following record next.
Input line: is_below(normalized growth, 1) for `O=C1C=C(O)c2ccccc2C1=O` ?
Output line: true (1)

* * *

Assay: chemical genetic growth profiling, strain panel (AID 1159580)
Conditions: S. cerevisiae deletion strains, growth OD, locus YIL147C, strain SLN1, active compounds read low
Among all 5,500 compounds or so, about 2,000 (36%) were called active. About 18% were inconclusive and are not listed. The list shows a part of the results.
QUANTITY: normalized growth

Below, 5 compounds whose answers are already recorded.
Cc1csc2c(N3CCN(C(=S)Nc4ccc(C(F)(F)F)cc4)CC3)ncnc12 | 0.992 (inactive)
Cc1csc2ncnc(N3CCN(C(=O)Nc4ccc(SC(F)(F)F)cc4)CC3)c12 | 0.987 (inactive)
O=S(=O)(Nc1c(F)cccc1F)c1ccc(Cl)c(Cl)c1 | 0.933 (inactive)
COC(=S)Nc1cc(Cl)cc(Cl)c1 | 0.929 (inactive)
CC(C)OC(=O)Nc1cc(Cl)cc(Cl)c1 | 0.987 (inactive)

Per the record, `Cn1cc(Br)c(-c2cccc(NS(=O)(=O)c3ccc(Cl)cc3)c2)n1` has normalized growth of 0.986 (inactive)

Per the record, `O=[N+]([O-])c1ccc(NCc2ccc(Cl)c(Cl)c2)nc1` has normalized growth of 0.94 (inactive)

Per the record, `COc1ccc(Oc2ccc([N+](=O)[O-])cc2C(=O)O/N=C(/N)c2ccc(C(F)(F)F)cc2)cc1` has normalized growth of 1 (inactive)

Per the record, `COC(=O)c1cccc(NS(=O)(=O)c2ccc(Cl)c(Cl)c2)c1` has normalized growth of 0.975 (inactive)

Per the record, `Cc1csc2ncnc(N3CCN(C(=S)Nc4ccc(C(F)(F)F)cc4)CC3)c12` has normalized growth of 1.01 (inactive)

Per the record, `O=C(/C=C/c1ccc(Cl)cc1)Nc1cccc(Cl)c1` has normalized growth of 0.96 (inactive)

* * *

Assay: chemical genetic growth profiling, strain panel (AID 1159580);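 further: tested at 20 µM; growth read once vehicle control cultures reached saturation at 30 °C; 1 = growth at the plate median or of vehicle wells; lower values mean less growth of the strain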
Settings: S. cerevisiae deletion strains, growth OD, locus YLR058C, strain SHM2 (second series), active compounds read low
The whole screen tested about 5,500 compounds, of which about 2,000 (36%) were called active. About 18% were inconclusive and are not listed. The list shows a part of the results.
Catalogue of compounds with associated normalized growth
# answer = number (no unit)

Below, 5 compounds whose answers are already recorded.
CC(C)(C)c1cc(C(=O)NN)n[nH]1 | 0.995
COc1ccc(CCNC(=O)c2ccccc2Cl)cc1OC | 1
Nc1ccccc1C(=O)NCCc1ccc(Cl)cc1 | 0.961
CCOC(=O)c1cnc(SCC(=O)c2ccc(Cl)cc2Cl)[nH]1 | 1.01
CCOC(=O)c1c[nH]c2c(F)cccc2c1=O | 1.01

Per the record, `N#Cc1cc(I)c(C#N)c(I)c1` has normalized growth of 0.733

Per the record, `Cc1cccc(NC(=O)c2ccccc2)c1` has normalized growth of 0.981

* * *

Assay: chemical genetic growth profiling, strain panel (AID 1159580);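 further: tested at 20 µM; growth read once vehicle control cultures reached saturation at 30 °C; 1 = growth at the plate median or of vehicle wells; lower values mean less growth of the strain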
Details: S. cerevisiae deletion strains, growth OD, locus YLR133W, strain CKI1, active compounds read low
The campaign covered roughly 5,500 compounds. About 2,000 (36%) were called active. Not shown: some 18% with an inconclusive outcome. The list shows a part of the results.
// boundary case: normalized growth equal to 0.9 maps to f; strictly smaller maps to t

Use the examples below as a reference point.
CCOC(=O)c1ccc(N=Cc2cc(Cl)cc(Cl)c2O)cc1 | t
O=C(Nc1ccccc1Sc1ccc(C(F)(F)F)cc1[N+](=O)[O-])C(Cl)Cl | f
CC(=O)c1ccc(Sc2ccccc2)c([N+](=O)[O-])c1 | t
CC(C)c1cccc(C(C)C)c1OC(=O)NC(=O)c1c(Cl)cccc1Cl | f

Input line: is_below(normalized growth, 0.9) for `O=[N+]([O-])c1ccc(Sc2ccccc2)cc1O` ?
Output line: t

* * *

Test: chemical genetic growth profiling, strain panel (AID 1159580);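 further: tested at 20 µM; growth read once vehicle control cultures reached saturation at 30 °C; 1 = growth at the plate median or of vehicle wells; lower values mean less growth of the strain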
Details: S. cerevisiae deletion strains, growth OD, locus YLR330W, strain CHS5
The campaign covered roughly 5,500 compounds. About 2,000 (36%) were called active. Not shown: some 18% with an inconclusive outcome. No stated cut-off is given here; in the data, active means normalized growth mostly below about 0.91 (no sharp cut-off); inconclusive means no clear call, values can overlap the other calls; inactive means mostly above about 0.92. This is one part of the list.
Answer with one of the outcomes given here: 1 for active, -1 for inactive

C=C[C@H]1CN2CC[C@H]1C[C@H]2[C@H](O)c1ccnc2ccccc12 | -1

Input line: Each compound tested received a call. Report the one for `NC(=NCCCCCCN=C(N)N=C(N)Nc1ccc(Cl)cc1)N=C(N)Nc1ccc(Cl)cc1` .
Output line: 1

Input line: Each compound tested received a call. Report the one for `N[C@@H](C(=O)N[C@@H]1C(=O)N2C(C(=O)O)=C(Cl)CS[C@H]12)c1ccccc1` .
Output line: -1

Input line: Each compound tested received a call. Report the one for `COc1cc(OC)c2c(OC)c(-c3ccc4c(c3)OCO4)c(=O)oc2c1` .
Output line: -1

Input line: Each compound tested received a call. Report the one for `CC(C)OC(=O)Nc1cccc(Cl)c1` .
Output line: -1

Input line: Each compound tested received a call. Report the one for `O=C(O)c1cccnc1C(=O)O` .
Output line: -1

Input line: Each compound tested received a call. Report the one for CC(NC(C)(C)C)C(=O)c1cccc(Cl)c1 (stereo not given) .
Output line: -1

Input line: Each compound tested received a call. Report the one for `O=C1c2cccc(O)c2C(=O)c2c(O)cccc21` .
Output line: 1
